Experiment: Solubility vs. pH
Format: physicochemical
Details: 0.15 M aqueous sodium chloride, saline or isotonic, thermodynamic from solid; pH 1.1; 0.15M sodium chloride (aqueous); read-out: Solubility, Concentration
metric: solubility at 2 h (mg/mL)
I only need the number, in mg/mL, no unit after it.

Exercise: Would you kindly share the measured solubility at 2 h for CCOc1ccc(-c2ccc(Cn3c(CC(C)(C)C(=O)[O-])c(SC(C)(C)C)c4cc(OCc5ccc(C)cn5)ccc43)cc2)cn1.[Na+] ?
Key: 0.026

====

Assay: Solubility vs. pH
Assay type: physicochemical
Settings: 0.15 M aqueous sodium chloride, saline or isotonic, thermodynamic from solid; pH 6.9; 0.15M sodium chloride (aqueous); read-out: Solubility, Concentration
metric: solubility at 2 h (µg/mL)
I only need the number, in µg/mL, no unit after it.

Exercise: Would you kindly share the measured solubility at 2 h for CCOc1ccc(-c2ccc(Cn3c(CC(C)(C)C(=O)[O-])c(SC(C)(C)C)c4cc(OCc5ccc(C)cn5)ccc43)cc2)cn1.[Na+] ?
Key: 0.7

====

Molecular target: UniProt P05177
Sequence (P05177 whole entry): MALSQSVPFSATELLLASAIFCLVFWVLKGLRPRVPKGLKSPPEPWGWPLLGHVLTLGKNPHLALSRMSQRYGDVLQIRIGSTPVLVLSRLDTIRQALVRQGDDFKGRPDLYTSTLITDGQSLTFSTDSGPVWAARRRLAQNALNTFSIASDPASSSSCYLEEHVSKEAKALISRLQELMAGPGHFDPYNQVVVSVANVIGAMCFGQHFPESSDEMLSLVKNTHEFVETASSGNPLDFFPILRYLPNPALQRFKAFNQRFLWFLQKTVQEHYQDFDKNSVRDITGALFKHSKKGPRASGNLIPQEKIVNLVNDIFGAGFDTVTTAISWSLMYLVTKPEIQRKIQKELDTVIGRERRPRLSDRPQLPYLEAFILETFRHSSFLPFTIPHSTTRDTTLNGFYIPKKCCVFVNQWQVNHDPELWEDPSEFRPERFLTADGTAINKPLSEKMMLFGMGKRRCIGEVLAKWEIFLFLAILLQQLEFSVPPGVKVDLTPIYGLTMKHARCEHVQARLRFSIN
Test: Extracellular Cytochrome P450 inhibition, 1A2
pIC50: −log10 of the molar value.
metric: pIC50

Exercise: Would you kindly share the measured pIC50 for CCOc1ccc(-c2ccc(Cn3c(CC(C)(C)C(=O)[O-])c(SC(C)(C)C)c4cc(OCc5ccc(C)cn5)ccc43)cc2)cn1.[Na+] [Compound 2] ?
Key: < 4.40
